FYI, the data here is from patent US12234227B2.

ASSAY_SYSTEM: human H4 receptor (Homo sapiens, UniProt Q9H3N8)
Construct: expressed in transfected cells; host or cells: HEKf cells transduced with baculovirus
Sequence (Q9H3N8 whole entry): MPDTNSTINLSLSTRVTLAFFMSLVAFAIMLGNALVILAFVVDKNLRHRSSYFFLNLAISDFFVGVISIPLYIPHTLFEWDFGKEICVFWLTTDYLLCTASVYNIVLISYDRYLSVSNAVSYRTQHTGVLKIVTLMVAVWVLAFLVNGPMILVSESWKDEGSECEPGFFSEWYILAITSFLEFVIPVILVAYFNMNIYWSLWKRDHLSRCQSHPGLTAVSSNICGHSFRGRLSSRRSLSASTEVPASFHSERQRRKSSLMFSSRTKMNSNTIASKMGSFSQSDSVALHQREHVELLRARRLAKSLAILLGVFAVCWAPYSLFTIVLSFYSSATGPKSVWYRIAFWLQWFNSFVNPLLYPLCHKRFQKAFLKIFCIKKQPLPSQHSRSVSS
PROCEDURE_SUMMARY: H4 Antagonist Functional Dynamic Mass Redistribution Assay
Assay type: cell-based
CONDITION_DETAILS: H4 antagonist activity, read-out: Human H4 DMR fpKb (converted)
Structures can show the parent of a compound that is named as a salt.
ASSAY_METRIC: Kb (nM)
Answers are plain numbers, in nM.

>  <MOLECULE>
CNC1CN(c2cc(-c3cnn(C(F)(F)F)c3)nc(N)n2)C1 [Example 8-16, ditrifluoroacetate]

>  <ASSAY_METRIC>
Kb

>  <READING>
1.58

$$$$
>  <MOLECULE>
CN[C@@H]1CCN(c2cc(-c3cnn(C(F)(F)F)c3)nc(N)n2)C1 [Example 8-7, dihydrochloride]

>  <ASSAY_METRIC>
Kb

>  <READING>
3.98

$$$$
>  <MOLECULE>
CN[C@H]1CCN(c2cc(-c3[nH]nc(C)c3Cl)nc(N)n2)C1 [Example 17-4, dihydrochloride]

>  <ASSAY_METRIC>
Kb

>  <READING>
5.01

$$$$
>  <MOLECULE>
Cc1cn[nH]c1-c1cc(N2CC[C@@H](N)C2)nc(N)n1 [Example 4-5]

>  <ASSAY_METRIC>
Kb

>  <READING>
2.51

$$$$
>  <MOLECULE>
CN[C@@H]1CCN(c2cc(-c3[nH]nc(C)c3O)nc(N)n2)C1 [Example 17-8]

>  <ASSAY_METRIC>
Kb

>  <READING>
39.8

$$$$
>  <MOLECULE>
CNC1CN(c2cc(-c3[nH]nc(C)c3C)nc(N)n2)C1 [Example 17-1]

>  <ASSAY_METRIC>
Kb

>  <READING>
1.58

$$$$

// query Form field: reported Kb of CNC1CN(c2cc(-c3[nH]nc(C(F)F)c3C)nc(N)n2)C1 [Example 17-11, ditrifluoroacetate]
// result 3.16
